target: Endoplasmic reticulum mannosyl-oligosaccharide 1,2-alpha-mannosidase (Homo sapiens, UniProt Q9UKM7)
Sequence (Q9UKM7 whole entry): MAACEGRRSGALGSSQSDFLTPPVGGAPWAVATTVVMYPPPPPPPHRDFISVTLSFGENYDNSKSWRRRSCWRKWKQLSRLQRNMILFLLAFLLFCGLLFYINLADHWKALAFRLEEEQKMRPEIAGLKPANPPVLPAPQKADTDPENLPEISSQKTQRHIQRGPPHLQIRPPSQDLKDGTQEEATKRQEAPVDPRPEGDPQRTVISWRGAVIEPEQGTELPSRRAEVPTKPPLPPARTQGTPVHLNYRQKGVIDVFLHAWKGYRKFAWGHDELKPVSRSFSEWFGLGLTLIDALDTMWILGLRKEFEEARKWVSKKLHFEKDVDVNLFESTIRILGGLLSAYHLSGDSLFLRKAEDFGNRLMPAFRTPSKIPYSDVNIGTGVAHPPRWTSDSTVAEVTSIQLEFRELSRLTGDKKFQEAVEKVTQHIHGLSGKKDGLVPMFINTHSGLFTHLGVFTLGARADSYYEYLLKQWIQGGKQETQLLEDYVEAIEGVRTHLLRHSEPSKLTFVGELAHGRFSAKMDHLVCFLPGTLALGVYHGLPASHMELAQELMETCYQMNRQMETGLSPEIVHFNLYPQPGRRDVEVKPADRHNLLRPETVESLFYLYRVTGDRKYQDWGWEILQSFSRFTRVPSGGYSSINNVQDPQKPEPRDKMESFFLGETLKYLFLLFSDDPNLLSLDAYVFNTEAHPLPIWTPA
quantity: Ki (µM)

Below, 6 molecules whose answers are already recorded.
OC[C@H](NC[C@H]1NC[C@H](O)[C@@H]1O)c1ccccc1	16.8
OC[C@@H](NC[C@H]1NC[C@H](O)[C@@H]1O)c1ccccc1	12
C[C@@H](O)NC[C@H]1NC[C@H](O)[C@@H]1O	918
O[C@H]1[C@@H](O)CN[C@@H]1CN[C@@H](COCc1cccc(F)c1)c1ccccc1	0.76
O[C@H]1[C@@H](O)CN[C@@H]1CNCC1CCN(Cc2ccccc2)CC1	13.1
OC[C@H]1NC[C@H](O)[C@@H]1O	1.26

[A] O[C@H]1[C@@H](O)CN[C@@H]1CNCn1ccnc1
[B] NC[C@H]1NC[C@H](O)[C@@H]1O
[C] O[C@H]1[C@@H](O)CN[C@@H]1CN[C@H](c1ccccc1)[C@@H](O)c1ccccc1
[D] O[C@H]1[C@@H](O)CN[C@@H]1CNCc1ccco1
[E] O[C@H]1[C@@H](O)CN[C@@H]1CNCc1cccs1
// ascending sort on recorded Ki Reply with the labels, ordered as the question asks. C, B, E, D, A
(C: 0.79 µM, B: 1.59 µM, E: 77.7 µM, D: 136 µM, A: 326 µM)

* * *

Molecular target: UniProt Q16706
Sequence (Q16706 whole entry): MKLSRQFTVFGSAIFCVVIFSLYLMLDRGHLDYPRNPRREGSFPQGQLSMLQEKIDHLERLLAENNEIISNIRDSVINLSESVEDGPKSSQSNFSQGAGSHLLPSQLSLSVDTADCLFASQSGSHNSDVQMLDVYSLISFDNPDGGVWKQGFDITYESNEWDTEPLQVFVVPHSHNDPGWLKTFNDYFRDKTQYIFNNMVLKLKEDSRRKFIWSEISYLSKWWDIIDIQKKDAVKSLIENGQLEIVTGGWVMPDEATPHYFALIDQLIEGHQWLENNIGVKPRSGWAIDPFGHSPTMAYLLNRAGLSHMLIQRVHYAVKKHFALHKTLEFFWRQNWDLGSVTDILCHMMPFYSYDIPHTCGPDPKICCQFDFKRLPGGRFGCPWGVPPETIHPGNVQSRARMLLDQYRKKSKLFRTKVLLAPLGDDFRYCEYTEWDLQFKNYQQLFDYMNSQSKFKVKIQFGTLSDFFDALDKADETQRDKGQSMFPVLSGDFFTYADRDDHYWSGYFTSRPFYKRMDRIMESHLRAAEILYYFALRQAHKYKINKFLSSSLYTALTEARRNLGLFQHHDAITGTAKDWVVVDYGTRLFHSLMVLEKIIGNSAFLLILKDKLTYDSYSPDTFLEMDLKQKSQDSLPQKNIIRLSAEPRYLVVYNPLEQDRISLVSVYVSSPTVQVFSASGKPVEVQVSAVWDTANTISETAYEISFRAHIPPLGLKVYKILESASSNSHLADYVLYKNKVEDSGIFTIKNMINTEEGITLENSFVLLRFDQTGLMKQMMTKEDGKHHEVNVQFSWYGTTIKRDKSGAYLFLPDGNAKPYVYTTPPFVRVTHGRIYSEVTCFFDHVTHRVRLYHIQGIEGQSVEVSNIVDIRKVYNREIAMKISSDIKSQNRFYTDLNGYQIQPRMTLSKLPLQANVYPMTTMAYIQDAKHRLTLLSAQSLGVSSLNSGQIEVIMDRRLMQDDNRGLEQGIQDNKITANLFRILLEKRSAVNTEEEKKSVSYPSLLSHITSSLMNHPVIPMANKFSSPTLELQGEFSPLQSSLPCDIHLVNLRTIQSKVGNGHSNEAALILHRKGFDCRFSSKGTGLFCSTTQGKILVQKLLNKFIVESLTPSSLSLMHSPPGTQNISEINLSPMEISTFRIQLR
quantity: Ki (µM)

The examples below pair each entry with its known result.
NC[C@H]1NC[C@H](O)[C@@H]1O	1310
CC(NC[C@H]1NC[C@H](O)[C@@H]1O)c1ccccc1 (stereo not given in full)	82.3
O[C@H]1[C@@H](O)CN[C@@H]1CNCc1cccs1	233

[a] OCC(O)[C@H]1NC[C@H](O)[C@@H]1O (stereo not given in full)
[b] O=C(NC[C@H](NC[C@H]1NC[C@H](O)[C@@H]1O)c1ccccc1)c1ccccc1Br
Among a and b , which shows a numerically higher Ki result? # answer = label of selected item a

* * *

tested on: Canavalia ensiformis; test: Inhibition of jack bean alpha-mannosidase assessed as p-nitrophenylglycoside substrate hydrolysis at 1 mM
quantity: inhibition

O[C@H]1[C@@H](O)CN[C@@H]1CCNc1ccccc1	33%
O[C@H]1[C@@H](O)CN[C@@H]1CN[C@@H](COCOc1cccc(Br)c1)c1ccccc1	79%
O[C@@H]1CNC[C@@H]1O	70%
O[C@H]1[C@@H](O)CN[C@@H]1CNCC1CCN(Cc2ccccc2)CC1	55%
COC[C@H](NC[C@H]1NC[C@H](O)[C@@H]1O)c1ccccc1	77%

Now examine the next entry.
Given CC(NC[C@H]1NC[C@H](O)[C@@H]1O)c1ccccc1 (stereo partly specified) , respond with its inhibition. 66%

* * *

tested on: Prunus dulcis; assay: Inhibition of almond alpha-mannosidase assessed as p-nitrophenylglycoside substrate hydrolysis at 1 mM
quantity: inhibition

Below are worked cases with known answers.
O[C@H]1[C@@H](O)CN[C@@H]1CN[C@H](c1ccccc1)[C@@H](O)c1ccccc1	55%
NC[C@H]1NC[C@H](O)[C@@H]1O	51%
O[C@H]1[C@@H](O)CN[C@@H]1CN[C@@H](c1ccccc1)[C@H](O)c1ccccc1	50%

Now look at this one.
Provide inhibition value for the following compound: `C[C@H](O)NC[C@H]1NC[C@H](O)[C@@H]1O` 45%

* * *

system: Canavalia ensiformis; assay: Inhibition of jack bean alpha-mannosidase assessed as p-nitrophenylglycoside substrate hydrolysis at 1 mM
quantity: inhibition

Give recorded inhibition. `O[C@H]1[C@@H](O)CN[C@@H]1CNC1CCCC1` 60%

Specify measured inhibition for `O[C@H]1[C@@H](O)CN[C@@H]1CNCn1ccnc1` . 55%

Answer with the recorded inhibition for the compound listed here: `O[C@H]1[C@@H](O)CN[C@@H]1CN[C@@H](COCOc1ccccc1F)c1ccccc1` 83%

For the compound `OC[C@@H](NC[C@H]1NC[C@H](O)[C@@H]1O)c1ccccc1` , give its reported inhibition. 92%

Provide measured inhibition value, entry: `C[C@@H](O)NC[C@H]1NC[C@H](O)[C@@H]1O` 75%

Provide one value: measured inhibition of `O[C@H]1[C@@H](O)CN[C@@H]1CN[C@@H](c1ccccc1)[C@H](O)c1ccccc1` 84%

Identify measured inhibition associated with `O[C@H]1[C@@H](O)CN[C@@H]1CN[C@@H](COCc1cccc(F)c1)c1ccccc1` 99%

Give inhibition for `O[C@H]1[C@@H](O)CN[C@@H]1CN[C@@H](COCOc1ccc(Br)cc1)c1ccccc1` 92%

Kindly indicate its recorded inhibition. Item: `NC[C@H]1NC[C@H](O)[C@@H]1O` 81%

Provide inhibition value for the following compound: `OC(O)C[C@H]1NC[C@H](O)[C@@H]1O` 81%

Look up inhibition of `O[C@H]1[C@@H](O)CN[C@@H]1CNCc1cccs1` and report it. 89%

Report measured inhibition; entry is `OC[C@H]1NC[C@H](O)[C@@H]1O` 54%

* * *

Target: Alpha-mannosidase 2 (Homo sapiens)
Sequence (Q16706 whole entry): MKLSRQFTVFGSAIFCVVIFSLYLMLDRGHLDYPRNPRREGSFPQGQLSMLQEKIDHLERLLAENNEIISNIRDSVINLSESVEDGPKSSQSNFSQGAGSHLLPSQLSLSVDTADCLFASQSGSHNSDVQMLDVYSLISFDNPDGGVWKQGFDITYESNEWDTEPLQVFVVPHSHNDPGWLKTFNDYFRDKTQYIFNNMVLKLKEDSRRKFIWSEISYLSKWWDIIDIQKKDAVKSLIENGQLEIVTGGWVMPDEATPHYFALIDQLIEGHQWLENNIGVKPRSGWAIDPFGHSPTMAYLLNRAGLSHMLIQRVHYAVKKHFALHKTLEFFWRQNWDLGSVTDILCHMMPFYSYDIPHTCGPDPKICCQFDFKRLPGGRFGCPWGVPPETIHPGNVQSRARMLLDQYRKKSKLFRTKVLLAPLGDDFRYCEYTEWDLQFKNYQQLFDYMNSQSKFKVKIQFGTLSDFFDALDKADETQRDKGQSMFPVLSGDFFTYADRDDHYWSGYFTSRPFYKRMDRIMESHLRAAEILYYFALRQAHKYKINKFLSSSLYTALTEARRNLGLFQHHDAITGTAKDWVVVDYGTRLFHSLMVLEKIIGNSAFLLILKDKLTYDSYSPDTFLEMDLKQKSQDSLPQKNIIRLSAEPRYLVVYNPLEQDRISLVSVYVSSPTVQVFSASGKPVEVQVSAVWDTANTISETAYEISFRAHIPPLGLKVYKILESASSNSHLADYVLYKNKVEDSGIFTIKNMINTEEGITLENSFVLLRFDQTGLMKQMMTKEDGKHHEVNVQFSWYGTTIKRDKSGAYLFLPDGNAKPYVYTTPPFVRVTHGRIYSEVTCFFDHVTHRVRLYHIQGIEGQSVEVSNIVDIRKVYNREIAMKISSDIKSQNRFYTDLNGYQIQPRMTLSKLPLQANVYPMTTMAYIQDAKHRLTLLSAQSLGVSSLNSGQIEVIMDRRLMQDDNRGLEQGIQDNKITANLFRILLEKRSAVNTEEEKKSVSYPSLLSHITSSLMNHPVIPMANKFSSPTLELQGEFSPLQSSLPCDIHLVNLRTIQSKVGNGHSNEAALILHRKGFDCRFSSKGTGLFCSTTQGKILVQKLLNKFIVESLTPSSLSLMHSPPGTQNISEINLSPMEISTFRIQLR
quantity: Ki (µM)

CC(=O)N(CNC[C@H]1NC[C@H](O)[C@@H]1O)Cc1ccccc1	64.9

[I] O[C@H]1[C@@H](O)CN[C@@H]1CN[C@@H](COCOc1ccc(F)cc1)c1ccccc1
[II] OC[C@H](NC[C@H]1N[C@H](CO)[C@H](O)[C@@H]1O)c1ccccc1
Given the listed items, does I or II have the lesser reported Ki? Write down the label of the entry you select. I
(I: 6.47 µM, II: 11.8 µM)
